Ref: patent US20240391862A1

Overview of recorded Post-emergence effect against LOLRI in % for various compounds
System: LOLRI
experimental details: Post-emergence herbicidal effect, greenhouse pot test
Assay type: in vivo, Lolium rigidum
settings: 320 g/ha
Report the figure in % without appending any unit label.

INSERT INTO measurements (compound, study_system, outcome_measure, readout_value) VALUES
  ('COC(=O)C(OC)Oc1nn(-c2cccc(Cl)c2F)c(-c2cncc(F)c2)c1Br (stereo not shown)', 'LOLRI', 'Post-emergence effect against LOLRI in %', 80),
  ('COC(Oc1nn(-c2ncccc2F)c(-c2cncc(F)c2)c1C1CC1)C(=O)O (stereo not shown) [Example I-84]', 'LOLRI', 'Post-emergence effect against LOLRI in %', 90);

Hey, LOLRI data for COC(=O)C(OC)Oc1nn(-c2ncccc2F)c(-c2cncc(F)c2)c1C1CC1 (stereo not shown) [Example I-86] : Post-emergence effect against LOLRI in % came out at 90

Reported Post-emergence effect against LOLRI in % (LOLRI) for entry COC(=O)CCOC(=O)C(OC)Oc1nn(-c2cc(F)ccc2F)c(-c2cncc(F)c2)c1C1CC1 (single isomer, unassigned) [Example I-78] is 90

Note to self: Post-emergence effect against LOLRI in % of COC(=O)C(C)COC(=O)C(OC)Oc1nn(-c2ccccc2F)c(-c2ccc(F)nc2)c1Br (racemic) with LOLRI was 90

Record COC(=O)C(OC)Oc1nn(-c2cccc(C)c2F)c(-c2ccc(F)nc2)c1Br (stereo not shown) / LOLRI, Post-emergence effect against LOLRI in % recorded as 80

Assay LOLRI, sample COC(=O)CCOC(=O)C(OC)Oc1nn(-c2cc(F)ccc2F)c(-c2cncc(F)c2)c1C1CC1 (single isomer, unassigned) [Example I-79] , Post-emergence effect against LOLRI in % read: 90
